- Tested on: NCI-H322M
- ASSAY_COMMENT: relative viability (nuclei count vs DMSO), 5 days (fraction); higher = more cells survive
- CONDITION_LABEL: first compound 0.253 µM
OBSERVATION_TYPE: relative viability
Please reply with the value in numeric form only.

C=C1C(=O)O[C@@H](CCCCCCCC)[C@@H]1C(=O)O [C-75] + CC1(C)CCC(c2ccc(Cl)cc2)=C(CN2CCN(c3ccc(C(=O)NS(=O)(=O)c4ccc(N[C@H](CCN5CCOCC5)CSc5ccccc5)c(S(=O)(=O)C(F)(F)F)c4)cc3)CC2)C1 [Navitoclax] (partner 0.5 µM) ... 1.54
C=C1C(=O)O[C@@H](CCCCCCCC)[C@@H]1C(=O)O [C-75] + CC(=O)Nc1cccc(-n2c(=O)n(C3CC3)c(=O)c3c(Nc4ccc(I)cc4F)n(C)c(=O)c(C)c32)c1 [Trametinib] (partner 0.02 µM) ... 0.673

Reported relative viability for C=C1C(=O)O[C@@H](CCCCCCCC)[C@@H]1C(=O)O [C-75] + CS(=O)(=O)CCNCc1ccc(-c2ccc3ncnc(Nc4ccc(OCc5cccc(F)c5)c(Cl)c4)c3c2)o1 [Lapatinib] (partner 2 µM) was 0.744

Reported relative viability for Oc1nc(-c2ccc(C(F)(F)F)cc2)nc2c1CSCC2 [XAV939] + CS(=O)(=O)N1CCN(Cc2cc3nc(-c4cccc5[nH]ncc45)nc(N4CCOCC4)c3s2)CC1 [Pictilisib] (partner 1 µM) was 0.491
